targetOrSystem: KPC-2 (Klebsiella pneumoniae carbapenemase-2) (Klebsiella pneumoniae, UniProt Q9F663)
Construct: purified KPC-2 expressed in E. coli BL21(DE3) (pET28a-KPC-2)
Sequence (Q9F663 25-293 limits assumed): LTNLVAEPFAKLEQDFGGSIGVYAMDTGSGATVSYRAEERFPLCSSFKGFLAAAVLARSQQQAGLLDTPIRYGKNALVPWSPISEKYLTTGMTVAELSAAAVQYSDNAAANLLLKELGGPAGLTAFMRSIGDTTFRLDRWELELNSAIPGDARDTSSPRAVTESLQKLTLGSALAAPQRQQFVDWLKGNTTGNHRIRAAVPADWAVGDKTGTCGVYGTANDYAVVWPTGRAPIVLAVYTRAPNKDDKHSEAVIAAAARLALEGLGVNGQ
experimentDescription: nitrocefin hydrolysis inhibition assay with purified KPC-2; supported by CD, FTIR and site-directed mutagenesis
pIC50: −log10 of the molar value.

>  <compound>
CCCCCCCCCCCCCc1cccc(O)c1C(=O)O [GA, Ginkgolic Acid (C13:0)]

>  <targetOrSystem>
KPC-2 (Klebsiella pneumoniae carbapenemase-2) (Klebsiella pneumoniae, UniProt Q9F663)

>  <pIC50>
4.83

$$$$
